SYSTEM UNDER TEST: human mAChR M4 (Homo sapiens)
Construct: expressed in transfected cells; host or cells: CHO-K1 (American Type Culture Collection), stably expressing hM4 and Gqi5
Sequence (P08173 whole entry): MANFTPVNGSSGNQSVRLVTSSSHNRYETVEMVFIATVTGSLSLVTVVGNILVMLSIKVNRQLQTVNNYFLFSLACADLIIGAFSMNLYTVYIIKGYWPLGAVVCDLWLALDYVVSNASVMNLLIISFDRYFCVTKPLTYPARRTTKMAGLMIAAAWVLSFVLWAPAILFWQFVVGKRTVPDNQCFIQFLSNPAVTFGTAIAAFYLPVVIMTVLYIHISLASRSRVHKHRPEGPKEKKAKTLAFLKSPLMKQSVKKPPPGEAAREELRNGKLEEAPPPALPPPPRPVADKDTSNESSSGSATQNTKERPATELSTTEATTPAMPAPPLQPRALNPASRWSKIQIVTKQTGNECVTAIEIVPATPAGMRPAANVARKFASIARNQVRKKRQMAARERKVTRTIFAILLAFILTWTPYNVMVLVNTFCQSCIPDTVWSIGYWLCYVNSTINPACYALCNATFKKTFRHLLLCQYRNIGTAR
ASSAY OVERVIEW: mAChR M4 cell-based functional assay: calcium mobilization (Fluo-4, FDSS), potentiation of EC20 acetylcholine response in hM4-Gqi5 CHO-K1 cells
REPORTED CONDITIONS: CHO-K1, % ACh maximum at 30 μM; human M4
RECORDED ENDPOINT: Emax at 30 µM (%)

Look over these answered cases.
| COMPOUND | RESULT UNITS | Emax at 30 µM |
| --- | --- | --- |
| Cc1cc2nc(C)c(C)c(=O)n2nc1N1CCc2ncc(Nc3ccncc3F)cc2C1 | % | 91 |
| Cc1ccc(-c2cnc3c(c2)CN(c2nn4c(=O)c(C)cnc4c(C)c2C)CC3)cn1 | % | 92 |
| Cc1cc(=O)n2nc(N3CCc4ncc(-c5ccc(C)c(F)c5)cc4C3)c(C)cc2n1 | % | 71 |
| COc1cc(-c2cnc3c(c2)CN(c2nn4c(=O)ccnc4cc2C)CC3)ccc1F | % | 85 |
| Cc1cc2nccc(=O)n2nc1N1CCc2ncc(N3CCCn4nccc43)cc2C1 | % | 97 |

(A) Cc1cc(N2CCc3ncc(N4CCCn5nccc54)cc3C2)nn2c(=O)ccnc12
(B) Cc1c(N2CCc3ncc(-c4cnn(-c5ccccc5F)c4)cc3C2)nn2c(=O)cc(C(F)F)nc2c1C
Lower value of Emax at 30 µM belongs to which: A or B ? # reply format: chosen label
B
(B: 47%, A: 71%)
